compounds and their reported pIC50
Biological target: Pf20S β5 (Plasmodium falciparum, UniProt A0A5K1K7U1+Q8IJT1)
Test: biochemical
Conceptually, pIC50 converts a concentration in mol/L into minus its log10.

Completed entries (count: 3):
[
  {
    "line_notation": "C[C@H]1[C@@H](CC(=O)NCCCC(=O)N[C@@H](CC(=O)NC(C)(C)C)C(=O)NCCNC(=O)c2cc(-c3ccccc3F)ccc2F)O[C@@H]2O[C@@]3(C)CC[C@H]4[C@H](C)CC[C@@H]1[C@@]24OO3",
    "pIC50": 8.37
  },
  {
    "line_notation": "C[C@H]1[C@@H](CC(=O)NCC(=O)N[C@@H](CC(=O)NC(C)(C)C)C(=O)NCCNC(=O)c2cc(-c3ccccc3F)ccc2F)O[C@@H]2O[C@@]3(C)CC[C@H]4[C@H](C)CC[C@@H]1[C@@]24OO3",
    "pIC50": 8.54
  },
  {
    "line_notation": "C[C@H]1[C@@H](CC(N)=O)O[C@@H]2O[C@@]3(C)CC[C@H]4[C@H](C)CC[C@@H]1[C@@]24OO3",
    "pIC50": 5.04
  }
]

Could you tell me which pIC50 is on file for "CC(C)(C)NC(=O)C[C@H](NC(=O)CCCNC(=O)OC(C)(C)C)C(=O)NCCNC(=O)c1cc(-c2ccccc2F)ccc1F" ? 8.22

---

Biological target: human c-20S β5c (Homo sapiens, UniProt P20618+P28074)
Assay: Proteasome IC50 determination, human c-20S β5c
compounds and their reported IC50
# unit: µM | format: bare number

[
  {
    "line_notation": "CC(C)(C)NC(=O)C[C@H](NC(=O)CCCNC(=O)OC(C)(C)C)C(=O)NCCNC(=O)c1cc(-c2ccccc2F)ccc1F",
    "IC50 (µM)": 2
  }
]

Could you tell me which IC50 is on file for "C[C@H]1[C@@H](CC(=O)NCC(=O)N[C@@H](CC(=O)NC(C)(C)C)C(=O)NCCNC(=O)c2cc(-c3ccccc3F)ccc2F)O[C@@H]2O[C@@]3(C)CC[C@H]4[C@H](C)CC[C@@H]1[C@@]24OO3" ? 0.21

Could you tell me which IC50 is on file for "C[C@H]1[C@@H](CC(=O)NCCCC(=O)N[C@@H](CC(=O)NC(C)(C)C)C(=O)NCCNC(=O)c2cc(-c3ccccc3F)ccc2F)O[C@@H]2O[C@@]3(C)CC[C@H]4[C@H](C)CC[C@@H]1[C@@]24OO3" ? 0.89

---

Target: human i-20S β5i (Homo sapiens, UniProt P20618+P28062)
Experiment: Proteasome IC50 determination, human i-20S β5i
test_readout: IC50 (nM)
# unit: nM | format: bare number

Completed entries (count: 2):
[
  {
    "line_notation": "C[C@H]1[C@@H](CC(=O)NCCCC(=O)N[C@@H](CC(=O)NC(C)(C)C)C(=O)NCCNC(=O)c2cc(-c3ccccc3F)ccc2F)O[C@@H]2O[C@@]3(C)CC[C@H]4[C@H](C)CC[C@@H]1[C@@]24OO3",
    "IC50 [nM]": 200
  },
  {
    "line_notation": "CC(C)(C)NC(=O)C[C@H](NC(=O)CCCNC(=O)OC(C)(C)C)C(=O)NCCNC(=O)c1cc(-c2ccccc2F)ccc1F",
    "IC50 [nM]": 200
  }
]

We now examine a further compound.
Could you tell me which IC50 is on file for "C[C@H]1[C@@H](CC(=O)NCC(=O)N[C@@H](CC(=O)NC(C)(C)C)C(=O)NCCNC(=O)c2cc(-c3ccccc3F)ccc2F)O[C@@H]2O[C@@]3(C)CC[C@H]4[C@H](C)CC[C@@H]1[C@@]24OO3" ? 73
